Test system: BLK
Conditions: concentration: 1 μM,replicates: in singlicate; n = 1;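 further: KINOMEscan kinase panel screen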
Grouping by measured %Inh is done with the following cut points: lo (below 6%), mid (6% to below 50%), hi (50% or more)

compound	label
Cc1cccc(-c2nc(Nc3ccncc3)c3sccc3n2)n1 [GW869641]	mid
O=C(Nc1n[nH]c2cc(-c3ccco3)ccc12)C1CC1 [SB-737447]	lo
COc1cc(Nc2nccc(N3CCC(NC(=O)c4cccc(C#N)c4)C3)n2)cc(OC)c1OC (stereo not shown) [GSK1379751]	lo
CS(=O)(=O)Nc1ccc(-c2ccnc3[nH]ccc23)cc1 [GSK993273]	lo
Cc1ccc(Nc2ccnc(Nc3ccc4c(c3)CS(=O)(=O)C4)n2)cc1O.Cl [GW579362]	hi
CN(c1cccc(CNc2nc(Nc3ccc4c(c3)CC(=O)N4)ncc2C(F)(F)F)c1)S(C)(=O)=O	lo
Cc1cccc2c(-c3ccncc3)c(-c3ccc(F)cc3)nn12.Cl [GW461487]	mid
COc1cc2nccc(Nc3ccc(Oc4ccccc4)cc3)c2cc1OC.Cl [GI261656]	hi
COc1cccc(CNC(=O)NC2CCN(c3ccnc(Nc4cc(OC)c(OC)c(OC)c4)n3)C2)c1 (stereo not shown) [GSK1379765]	mid
Cl.Cl.NC[C@H](CC1CCCCC1)NC(=O)c1ccc(-c2ccnc3[nH]ccc23)s1 [GSK1581428]	lo
NC(=O)Nc1sc(-c2ccc(F)cc2)cc1C(N)=O [GW789449]	mid
CNC(=O)c1ccccc1Nc1nc(Nc2cccc(CS(C)(=O)=O)c2)ncc1C.O=CO [GSK1520489]	hi
C[C@@H](Oc1cc(-n2cnc3cc(-c4cnn(C)c4)ccc32)sc1C(N)=O)c1ccccc1Cl [GSK580432]	hi
COc1cccc(C2=C(Nc3cccc(Cl)c3)C(=O)NC2=O)c1 [SB-341556]	hi

---

Tested on: NLK
Conditions: concentration: 1 μM,replicates: in singlicate; n = 1
Each item that follows carries a reported %Inh.

compound	%Inh [%]
N#Cc1cccc(C(=O)NC2CCN(c3ccnc(Nc4ccc(F)cc4)n3)C2)c1 (stereo not shown)	0
CSc1nccc(-c2c(-c3ccc(F)cc3)ncn2CCCN2CCOCC2)n1.Cl	0
O=C(Nc1ccccc1)c1cccc(Oc2ccc3nccn3n2)c1	0
CN(c1cccc(CNc2nc(Nc3ccc4c(c3)CC(=O)N4)ncc2C(F)(F)F)c1)S(C)(=O)=O	8
Cl.c1ccc(Oc2ccc(Nc3ccnc4cc(-c5ccc(CN6CCNCC6)o5)ccc34)cc2)nc1	15
COc1cc(Nc2nccc(N3CCC(NC(=O)c4cccc(C#N)c4)C3)n2)cc(OC)c1OC (stereo not shown)	7
O=C(NOCC1CC1)c1cc(Br)c(F)c(F)c1Nc1ccc(I)cc1Cl	0
Cc1ccc(Nc2ccnc(Nc3ccc4c(c3)CS(=O)(=O)C4)n2)cc1O.Cl	97.5
CC(=O)Nc1ccc(-c2cc3ncnc(SCC(=O)O)c3s2)cc1	0
CS(=O)(=O)Nc1ccc(-c2ccnc3[nH]ccc23)cc1	30
CN1CCN(CCNc2nc3cc(Oc4ccc(NC(=O)Nc5cc(C(F)(F)F)ccc5F)cc4)ccc3[nH]2)CC1.Cl.Cl	0
COC(=O)c1cccc(NC(=O)NC2CCN(c3ccnc(Nc4cc(OC)c(OC)c(OC)c4)n3)C2)c1 (stereo not shown)	32
FC(F)(F)c1cc(Br)cc(Nc2nccc(-c3cnn4ncccc34)n2)c1	0
Cc1ccn2nc(-c3ccc(F)cc3)c(-c3ccncc3)c2c1.Cl	79
Cn1ccc2ncnc(Oc3ccc(NC(=O)Nc4ccnc(C(F)(F)F)c4)c(Cl)c3)c21	14
C[C@@H]1CNc2c(sc3ccc4nc(-c5ccc(O)cc5)ccc4c23)C(=O)N1	8

---

System: STK39
Conditions: concentration: 1 μM,replicates: in singlicate; n = 1
Each item that follows carries a reported %Inh.
measure-name: %Inh (%)

molecule	observed
CN(c1cccc(CNc2nc(Nc3ccc4c(c3)CC(=O)N4)ncc2C(F)(F)F)c1)S(C)(=O)=O	0
CC(=O)Nc1nc2cnc(Nc3cc(NC(=O)c4cccc(CC(C)(C)C#N)c4)ccc3C)nc2s1	22
COC(=O)c1cccc(NC(=O)NC2CCN(c3ccnc(Nc4cc(OC)c(OC)c(OC)c4)n3)C2)c1 (stereo not drawn) [GSK1379767]	5
O=C(NOCC1CC1)c1cc(Br)c(F)c(F)c1Nc1ccc(I)cc1Cl	0
CCN1CCN(CCCC(=O)Nc2n[nH]c3nc(-c4ccc(O)cc4)c(Br)cc23)CC1 [SB-731579]	0
COc1ccc(Nc2nccc(N3CCC(NC(=O)c4cccc(C#N)c4)C3)n2)cc1 (stereo not drawn) [GSK1379730]	0
CSc1nccc(-c2c(-c3ccc(F)cc3)ncn2CCCN2CCOCC2)n1.Cl [SB-217146]	0
CC(=O)Nc1ccc(-c2cc3ncnc(SCC(=O)O)c3s2)cc1	0
Cc1ccc(C(=O)Nc2ccc(Oc3ccc4nc(NC(=O)C5CC5)cn4c3)c(F)c2)c(=O)n1-c1ccccc1	25
Cc1ccc2c(-c3ccnc(Nc4ccc(C(F)(F)F)cc4)n3)cnn2n1 [GW819776]	6
Cn1ccc2ncnc(Oc3ccc(NC(=O)Nc4cncc(C(F)(F)F)c4)c(Cl)c3)c21	0
COc1cc(Nc2nccc(N3CCC(NC(=O)c4cccc(C#N)c4)C3)n2)cc(OC)c1OC (stereo not drawn) [GSK1379751]	0

---

Each item that follows carries a reported %Inh.
Test system: DAPK2
Conditions: concentration: 1 μM,replicates: in singlicate; n = 1
measure-name: %Inh (%)

Cn1ccc2ncnc(Oc3ccc(NC(=O)Nc4cccc(C(F)(F)F)c4)c(F)c3)c21 0
COc1cc2c(Nc3ccc(NC(=O)c4ccccc4)cc3)ncnc2cc1OCCCN1CCOCC1 0
Cc1ccc(CC(=O)N2CCc3cc(-c4cn(C)c5ncnc(N)c45)ccc32)cc1 5
FC(F)(F)c1cc(Br)cc(Nc2nccc(-c3cnn4ncccc34)n2)c1 1

---

Test system: FYN
Conditions: concentration: 1 μM,replicates: in singlicate; n = 1
Returns one of T or F; T when %Inh is >= 40%.

molecule	study-target	label
CS(=O)(=O)c1cccc(CNc2nc(Nc3ccc4c(c3)[C@@H]3C[C@@H]4CNC3=O)ncc2C(F)(F)F)c1	FYN	F
CC(=O)c1c(-c2ccncc2)[nH]c(-c2ccncc2)c1C	FYN	F
CN(c1ccc2c(c1)nc(NCc1ccc(F)cc1)n2C)c1ccnc(Nc2ccc(CS(C)(=O)=O)cc2)n1.Cl	FYN	T
CNC(=O)c1ccccc1Nc1nc(Nc2cccc(CS(C)(=O)=O)c2)ncc1C.O=CO	FYN	T
OCCn1cc(-c2cnc3nnn(Cc4ccc5ncccc5c4)c3n2)cn1	FYN	F
C[C@@H](Oc1cc(-n2cnc3ccc(-c4ccncc4)cc32)sc1C(N)=O)c1ccccc1Cl	FYN	T
N#Cc1cccc(C(=O)NC2CCN(c3ccnc(Nc4ccc(F)cc4)n3)C2)c1 (centres unmarked)	FYN	F
CC(C)c1nc(-c2cccc(NS(=O)(=O)c3ccccc3)c2)c(-c2ccnc(Nc3ccc4c(c3)CN(C)CC4)n2)s1	FYN	T
NC(=O)Nc1sc(-c2ccc(F)cc2)cc1C(N)=O	FYN	F
Cn1ccc2ncnc(Oc3ccc(NC(=O)Nc4cc(C(C)(C)C)on4)c(Cl)c3)c21	FYN	F
O=c1[nH]cc(-c2ccc(O)cc2)c2sc(-c3ccncc3)cc12	FYN	F

---

Each item that follows carries a reported %Inh.
Tested on: MAP3K2
Conditions: concentration: 1 μM,replicates: in singlicate; n = 1
measure-name: %Inh (%)

compound	measure-name	quantity-unit	observed
Cc1ccc(C(=O)Nc2ccc(Oc3ccc4nc(NC(=O)C5CC5)cn4c3)c(F)c2)c(=O)n1-c1ccccc1	%Inh	%	0
COc1cccc(OC)c1C(=O)Nc1cccc(-c2nn3ccccc3c2-c2ccnc(Nc3cccc(F)c3)n2)c1 [GSK361065]	%Inh	%	7
CS(=O)(=O)Nc1ccc(-c2ccnc3[nH]ccc23)cc1 [GSK993273]	%Inh	%	58
CCn1c(-c2nonc2N)nc2cncc(Br)c21 [SB-738004]	%Inh	%	0
O=C(Nc1cccc(Oc2ccc3nccn3n2)c1)Nc1cccc(C(F)(F)F)c1	%Inh	%	3
Cc1ccn2nc(-c3ccc(F)cc3)c(-c3ccncc3)c2c1.Cl [GW457859]	%Inh	%	0

---

Each item that follows carries a reported %Inh.
Test system: PRKD2
Settings: concentration: 1 μM,replicates: in singlicate; n = 1

compound	%Inh, %
COc1cccc(C2=C(Nc3cccc(Cl)c3)C(=O)NC2=O)c1	0
CCCC(=O)Nc1n[nH]c2ncccc12	0
C[C@@H]1CCN(C(=O)N2CCCC2)C[C@@H]1N(C)c1ncnc2[nH]ccc12	54
CC(C)c1nc(-c2cccc(NS(=O)(=O)c3ccccc3)c2)c(-c2ccnc(Nc3ccc4c(c3)CN(C)CC4)n2)s1	99.9
Cc1cccc2c(-c3ccncc3)c(-c3ccc(F)cc3)nn12.Cl	36
NC(=O)c1ccc(-c2cc3ncnc(SCC(=O)O)c3s2)cc1	0
COc1cccc(CNC(=O)NC2CCN(c3ccnc(Nc4cc(OC)c(OC)c(OC)c4)n3)C2)c1 (centres unmarked)	3
C[C@@H](Oc1cc(-n2cnc3cc(-c4ccncc4)ccc32)sc1C(N)=O)c1ccccc1Cl	0
O=C(NCC1CC1)c1ccc(-c2cc(C(=O)NC3CC3)ccc2F)cc1	0
O=c1[nH]cc(-c2ccc(O)cc2)c2sc(-c3ccncc3)cc12	0
N#Cc1cccc(C(=O)NC2CCN(c3ccnc(Nc4ccc(F)cc4)n3)C2)c1 (centres unmarked)	0
